Molecular target: human GPR68 (Homo sapiens, UniProt Q15743)
Construct: encoding full-length human GPR68 (uniprot ID: Q15743); expressed in transfected cells; host or cells: HEK293T
Sequence (Q15743 whole entry): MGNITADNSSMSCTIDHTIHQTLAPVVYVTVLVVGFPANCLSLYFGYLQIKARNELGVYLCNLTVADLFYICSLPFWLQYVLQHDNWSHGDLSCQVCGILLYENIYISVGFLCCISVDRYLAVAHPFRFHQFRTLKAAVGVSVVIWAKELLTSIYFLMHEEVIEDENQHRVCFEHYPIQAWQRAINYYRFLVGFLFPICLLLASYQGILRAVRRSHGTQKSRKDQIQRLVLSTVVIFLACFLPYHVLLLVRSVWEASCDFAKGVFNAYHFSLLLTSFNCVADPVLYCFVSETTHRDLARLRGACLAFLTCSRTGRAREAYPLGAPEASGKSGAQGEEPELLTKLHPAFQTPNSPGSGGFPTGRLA
Experiment: GPR68 Biochemical Assay (Promega GloSensor cAMP assay, GPR68 antagonism)
Assay type: cell-based
Conditions: HEK293T cells transiently expressing hGPR68, antagonism of pH 5.5 stimulated cAMP, 15 min, read-out: hGPR68 IC50
Listed compounds paired with reported IC50

Example entries and their recorded answers appear below.
>  <COMPOUND>
[2H]C([2H])([2H])OCc1nn2c(C(=O)NC3Cc4cccnc4C3)ccnc2c1C(N)=O (stereo not drawn)

>  <IC50>
< 50 nM

$$$$
>  <COMPOUND>
COCc1nc2c(C(=O)NC3CCC(F)(F)CC3)ncnn2c1C(N)=O

>  <IC50>
50 to 500 nM

$$$$
>  <COMPOUND>
COCc1nn2c(C(=O)NC3COc4c(F)cccc43)ccnc2c1C(N)=O (stereo not drawn)

>  <IC50>
< 50 nM

$$$$
>  <COMPOUND>
COCc1nn2c(C(=O)NC3CCC(F)(F)c4cc(F)ccc43)ccnc2c1C(N)=O (stereo not drawn)

>  <IC50>
< 50 nM

$$$$
>  <COMPOUND>
COCc1nc2c(C(=O)NC3CC(F)(F)c4ccccc43)ccnn2c1C(N)=O (stereo not drawn)

>  <IC50>
< 50 nM

$$$$

Query string: Recorded IC50 of COCc1nn2c(C(=O)NC3CCc4ccc(OC)cc4C3)ccnc2c1C(N)=O (stereo not drawn) , please.
Result string: < 50 nM

Query string: Entry under review: COCc1nn2c(C(=O)NC3Cc4ccncc4C3)ccnc2c1C(N)=O (stereo not drawn) . Reported IC50?
Result string: < 50 nM

Query string: Which IC50 value is on record for `COCc1nn2c(C(=O)Nc3ccc(F)c(F)c3)ccnc2c1C(N)=O` ?
Result string: < 50 nM

Query string: For `COCc1nn2c(C(=O)NC3(C)Cc4ccccc4C3)ccnc2c1C(N)=O` , what is its reported IC50?
Result string: 50 to 500 nM
